Each recorded value in this set is attributed to paper PMC12846068.

assay-system: mOATP1B2 (Mus musculus)
Construct: The full-length mOATP1B2 and rOATP1B2 consist of 689 and 678 amino acids
Sequence (Q9JJL3 whole entry): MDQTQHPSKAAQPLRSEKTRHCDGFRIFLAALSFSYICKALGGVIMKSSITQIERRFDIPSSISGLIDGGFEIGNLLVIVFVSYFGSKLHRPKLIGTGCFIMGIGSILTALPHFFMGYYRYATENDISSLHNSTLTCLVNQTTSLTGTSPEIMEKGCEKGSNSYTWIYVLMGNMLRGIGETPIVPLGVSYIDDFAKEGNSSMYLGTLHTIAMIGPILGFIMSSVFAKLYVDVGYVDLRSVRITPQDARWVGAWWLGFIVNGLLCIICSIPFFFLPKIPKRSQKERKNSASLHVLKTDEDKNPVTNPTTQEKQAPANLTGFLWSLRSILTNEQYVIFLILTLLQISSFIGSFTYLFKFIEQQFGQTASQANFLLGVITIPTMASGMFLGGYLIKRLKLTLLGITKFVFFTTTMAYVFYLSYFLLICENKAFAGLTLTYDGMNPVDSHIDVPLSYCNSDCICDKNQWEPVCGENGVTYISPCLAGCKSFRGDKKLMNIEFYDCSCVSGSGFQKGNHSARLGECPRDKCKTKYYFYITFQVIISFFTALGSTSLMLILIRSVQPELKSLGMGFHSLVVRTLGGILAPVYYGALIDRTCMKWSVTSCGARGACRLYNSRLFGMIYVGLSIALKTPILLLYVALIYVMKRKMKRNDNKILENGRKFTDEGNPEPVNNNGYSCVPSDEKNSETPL
assay-protocol: cis-inhibition of mOATP1B2-mediated E1S or TCA uptake in HEK293 cells
Assay type: cell-based
assay-conditions: HEK293, read-out: Inhibitory effect on mOATP1B2-mediated TCA uptake, 10 µM drug, 1 µM [3H]-TCA, 1 min
Threshold check on inhibition at 10 µM: at or above 30% gives Yes, strictly below gives No.

[
  {
    "compound": "CCCc1nc(C(C)(C)O)c(C(=O)O)n1Cc1ccc(-c2ccccc2-c2nnn[nH]2)cc1 [Olmesartan, olmesartan]",
    "class": "No"
  },
  {
    "compound": "CO[C@H]1/C=C/O[C@@]2(C)Oc3c(C)c(O)c4c(O)c(c(/C=N/N5CCN(C)CC5)c(O)c4c3C2=O)NC(=O)/C(C)=C\\C=C\\[C@H](C)[C@H](O)[C@@H](C)[C@@H](O)[C@@H](C)[C@H](OC(C)=O)[C@@H]1C [Rifampicin, rifampicin]",
    "class": "Yes"
  },
  {
    "compound": "CC(C)c1nc(N(C)S(C)(=O)=O)nc(-c2ccc(F)cc2)c1/C=C/[C@@H](O)C[C@@H](O)CC(=O)O [Rosuvastatin, rosuvastatin]",
    "class": "Yes"
  },
  {
    "compound": "CCCCC1(CCCC)CN(c2ccccc2)c2cc(SC)c(OCC(=O)N[C@@H](C(=O)N[C@@H](CC)C(=O)O)c3ccc(O)cc3)cc2S(=O)(=O)N1 [Odevixibat, odevixibat]",
    "class": "Yes"
  },
  {
    "compound": "CC(C)CN(C[C@@H](O)[C@H](Cc1ccccc1)NC(=O)O[C@H]1CCOC1)S(=O)(=O)c1ccc(N)cc1 [Amprenavir, amprenavir]",
    "class": "Yes"
  },
  {
    "compound": "Clc1ccccc1C(c1ccccc1)(c1ccccc1)n1ccnc1 [Clotrimazole, clotrimazole]",
    "class": "No"
  },
  {
    "compound": "CC(C)c1nc(CN(C)C(=O)N[C@H](C(=O)N[C@@H](Cc2ccccc2)C[C@H](O)[C@H](Cc2ccccc2)NC(=O)OCc2cncs2)C(C)C)cs1 [Ritonavir, ritonavir]",
    "class": "Yes"
  }
]

---

assay-system: rOATP1B2 (Rattus norvegicus, UniProt Q9QZX8)
Construct: The full-length mOATP1B2 and rOATP1B2 consist of 689 and 678 amino acids
Sequence (Q9QZX8 whole entry): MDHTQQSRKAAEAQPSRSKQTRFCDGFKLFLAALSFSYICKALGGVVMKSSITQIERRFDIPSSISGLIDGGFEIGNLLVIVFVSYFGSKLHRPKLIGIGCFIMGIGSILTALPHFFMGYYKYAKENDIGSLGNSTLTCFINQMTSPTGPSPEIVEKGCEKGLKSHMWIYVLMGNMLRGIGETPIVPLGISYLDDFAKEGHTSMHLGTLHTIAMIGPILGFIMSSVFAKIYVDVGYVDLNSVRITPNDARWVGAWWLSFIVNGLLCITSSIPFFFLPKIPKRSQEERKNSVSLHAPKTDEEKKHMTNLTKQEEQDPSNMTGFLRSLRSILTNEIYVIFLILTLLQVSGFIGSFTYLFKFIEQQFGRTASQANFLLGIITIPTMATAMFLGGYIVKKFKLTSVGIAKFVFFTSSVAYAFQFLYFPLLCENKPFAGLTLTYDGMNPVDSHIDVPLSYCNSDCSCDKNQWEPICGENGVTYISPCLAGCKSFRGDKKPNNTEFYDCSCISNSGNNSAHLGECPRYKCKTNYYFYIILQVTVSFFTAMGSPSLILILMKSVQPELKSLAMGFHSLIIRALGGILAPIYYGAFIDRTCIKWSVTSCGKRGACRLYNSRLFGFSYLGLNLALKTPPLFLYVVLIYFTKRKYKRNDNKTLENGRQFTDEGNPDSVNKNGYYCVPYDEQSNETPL
assay-protocol: cis-inhibition of rOATP1B2-mediated E1S or TCA uptake in HEK293 cells
Type: cell-based
assay-conditions: HEK293, read-out: Inhibitory effect on rOATP1B2-mediated TCA uptake, 10 µM drug, 1 µM [3H]-TCA, 1 min

[
  {
    "molecule": "CC(C)CN(C[C@@H](O)[C@H](Cc1ccccc1)NC(=O)O[C@H]1CCOC1)S(=O)(=O)c1ccc(N)cc1",
    "inhibition at 10 µM": "27%"
  },
  {
    "molecule": "CO[C@H]1/C=C/O[C@@]2(C)Oc3c(C)c(O)c4c(O)c(c(/C=N/N5CCN(C)CC5)c(O)c4c3C2=O)NC(=O)/C(C)=C\\C=C\\[C@H](C)[C@H](O)[C@@H](C)[C@@H](O)[C@@H](C)[C@H](OC(C)=O)[C@@H]1C",
    "inhibition at 10 µM": "83%"
  },
  {
    "molecule": "CC(=O)N1CCN(c2ccc(OCC3COC(Cn4ccnc4)(c4ccc(Cl)cc4Cl)O3)cc2)CC1 (stereo not drawn)",
    "inhibition at 10 µM": "19%"
  }
]
